- Experiment Notes: small-molecule binders of probe aNOTCH2, primary screen, biochemical, small-molecule microarray, 635/667 nm fluorescence (AID 1121);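 note: score merges feature fluorescence read at 667 nm with its signal to noise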
- Stated Conditions: higher = more signal
Entries annotated with measured composite z-score

// below: answered compounds
[
  {
    "Compound": "O=C1C[C@]2(c3ccc([N+](=O)[O-])cc3)C(=O)N(CC(F)(F)F)c3cc(CO)ccc3[C@H]2N1CC12CC3CC(CC(C3)C1)C2",
    "Metric": "composite z-score",
    "Recorded Measurement": -0.168
  },
  {
    "Compound": "COCCOC(=O)N1C(=O)[C@@]2(c3cc(C#CCNC(N)=O)ccc31)[C@H](c1ccc(OCCO)cc1)N1[C@H](c3ccccc3)[C@H](c3ccccc3)OC(=O)[C@H]1[C@@H]2C(=O)N1CCc2cc(OC)c(OC)cc2C1",
    "Metric": "composite z-score",
    "Recorded Measurement": -0.0349
  },
  {
    "Compound": "O=C1OCCC=C[C@H]2OC34C=CCN(Cc5ccccc5)C(=O)[C@H]3N(CCCO)C(=O)[C@@H]4C12 (stereo partly specified)",
    "Metric": "composite z-score",
    "Recorded Measurement": -0.164
  },
  {
    "Compound": "COCCOC(=O)N1C(=O)[C@@]2(c3cc(C#CCNC(N)=O)ccc31)[C@H](C(=O)N1CCc3cc(OC)c(OC)cc3C1)[C@H]1C(=O)O[C@H](c3ccccc3)[C@H](c3ccccc3)N1[C@@H]2c1ccc(OCCO)cc1",
    "Metric": "composite z-score",
    "Recorded Measurement": -0.186
  },
  {
    "Compound": "CC(C)c1ccc(NN2C(C(O)c3cccc(O)c3)C=CC3C(=O)N(c4ccccc4)C(=O)C32)cc1 (stereo unspecified)",
    "Metric": "composite z-score",
    "Recorded Measurement": 0.0572
  }
]

Lookup: If you can, please state the reported composite z-score value of COc1ccc([Si](C)(C)[C@H]2[C@H](CCn3cc(CCO)nn3)O[C@@]3(C(=O)N(Cc4ccc(N5CCOC5=O)cc4)c4ccccc43)[C@@H]2C)cc1 .
Found: -0.112
